Reference for the values: paper PMC10132233

The following compounds are shown together with reported inhibition at 10 µM values.
Target: EGFR (Homo sapiens, UniProt P00533)
Sequence (P00533 25-1210): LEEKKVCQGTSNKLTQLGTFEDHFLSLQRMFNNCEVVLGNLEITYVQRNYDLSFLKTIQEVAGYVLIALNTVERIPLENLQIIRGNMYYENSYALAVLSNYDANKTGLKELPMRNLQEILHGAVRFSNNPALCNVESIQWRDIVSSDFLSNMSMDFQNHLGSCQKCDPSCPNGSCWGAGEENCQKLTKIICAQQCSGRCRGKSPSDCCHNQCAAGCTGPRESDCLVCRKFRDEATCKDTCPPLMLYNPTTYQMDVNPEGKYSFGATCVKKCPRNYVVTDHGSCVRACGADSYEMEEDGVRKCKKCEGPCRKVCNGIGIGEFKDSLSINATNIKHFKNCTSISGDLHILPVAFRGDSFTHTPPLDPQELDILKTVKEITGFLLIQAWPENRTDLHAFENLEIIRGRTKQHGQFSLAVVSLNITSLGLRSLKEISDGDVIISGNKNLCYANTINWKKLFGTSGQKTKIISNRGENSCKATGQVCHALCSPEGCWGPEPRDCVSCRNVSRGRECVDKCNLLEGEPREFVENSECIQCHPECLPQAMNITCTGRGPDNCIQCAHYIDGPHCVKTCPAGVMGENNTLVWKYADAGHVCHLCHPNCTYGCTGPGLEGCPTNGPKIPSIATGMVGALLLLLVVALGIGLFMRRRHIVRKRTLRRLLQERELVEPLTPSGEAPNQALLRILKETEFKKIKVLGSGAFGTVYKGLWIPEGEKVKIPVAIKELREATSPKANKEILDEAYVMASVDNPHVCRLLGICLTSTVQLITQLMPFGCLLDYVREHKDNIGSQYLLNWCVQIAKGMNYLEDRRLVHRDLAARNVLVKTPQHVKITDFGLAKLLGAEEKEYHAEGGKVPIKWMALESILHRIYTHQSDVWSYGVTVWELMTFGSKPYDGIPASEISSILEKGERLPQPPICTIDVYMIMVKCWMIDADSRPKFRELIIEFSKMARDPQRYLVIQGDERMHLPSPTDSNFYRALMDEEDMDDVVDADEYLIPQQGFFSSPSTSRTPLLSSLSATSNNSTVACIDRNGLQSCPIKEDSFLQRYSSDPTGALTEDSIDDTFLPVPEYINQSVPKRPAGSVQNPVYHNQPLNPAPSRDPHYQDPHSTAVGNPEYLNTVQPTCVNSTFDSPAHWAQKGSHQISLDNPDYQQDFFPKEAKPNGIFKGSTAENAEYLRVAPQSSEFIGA
Test: HotSpot kinase assay over EGFR (Reaction Biology)
Settings: read-out: % kinase inhibition EGFR
Remember to follow the number with its unit.

The examples below pair each entry with its known result.
                              record_smiles         assay_metric  experimental_result
0  COc1cc2ncnc(Nc3ccc(Oc4cccc(C(F)(F)F)c4)c(Cl)c3)c2cc1OCCCCCCn1ccnc1[N+](=O)[O-]  inhibition at 10 µM                96.8%
1  COc1cc2ncnc(Nc3ccc(Oc4ccc(Cl)c(Cl)c4)c(Cl)c3)c2cc1OCCCn1ccnc1[N+](=O)[O-]  inhibition at 10 µM                  89%
2  COc1cc2ncnc(Nc3ccc(Oc4ccc(Cl)c(Cl)c4)c(Cl)c3)c2cc1OCCCCn1ccnc1[N+](=O)[O-]  inhibition at 10 µM                94.2%
3  COc1cc2ncnc(Nc3ccc(Oc4cccc(C(F)(F)F)c4)c(Cl)c3)c2cc1OCCCCCn1ccnc1[N+](=O)[O-]  inhibition at 10 µM                99.2%
4  COc1cc2ncnc(Nc3ccc(Oc4ccc(Cl)c(Cl)c4)c(Cl)c3)c2cc1OCCCCCn1ccnc1[N+](=O)[O-]  inhibition at 10 µM                  90%

## Input Please indicate inhibition at 10 µM recorded for COc1cc2ncnc(Nc3ccc(Oc4ccc(Cl)c(Cl)c4)c(Cl)c3)c2cc1OCCCCCCn1ccnc1[N+](=O)[O-]
## Output 88.9%

## Input Please indicate inhibition at 10 µM recorded for COc1cc2ncnc(Nc3ccc(Oc4cccc(C(F)(F)F)c4)c(Cl)c3)c2cc1OCCCCn1ccnc1[N+](=O)[O-]
## Output 99.3%

## Input Please indicate inhibition at 10 µM recorded for COc1cc2ncnc(Nc3ccc(Oc4cccc(C(F)(F)F)c4)c(Cl)c3)c2cc1OCCCn1ccnc1[N+](=O)[O-]
## Output 98.9%

---

Target: UniProt:P04626
Sequence (P04626 23-1255): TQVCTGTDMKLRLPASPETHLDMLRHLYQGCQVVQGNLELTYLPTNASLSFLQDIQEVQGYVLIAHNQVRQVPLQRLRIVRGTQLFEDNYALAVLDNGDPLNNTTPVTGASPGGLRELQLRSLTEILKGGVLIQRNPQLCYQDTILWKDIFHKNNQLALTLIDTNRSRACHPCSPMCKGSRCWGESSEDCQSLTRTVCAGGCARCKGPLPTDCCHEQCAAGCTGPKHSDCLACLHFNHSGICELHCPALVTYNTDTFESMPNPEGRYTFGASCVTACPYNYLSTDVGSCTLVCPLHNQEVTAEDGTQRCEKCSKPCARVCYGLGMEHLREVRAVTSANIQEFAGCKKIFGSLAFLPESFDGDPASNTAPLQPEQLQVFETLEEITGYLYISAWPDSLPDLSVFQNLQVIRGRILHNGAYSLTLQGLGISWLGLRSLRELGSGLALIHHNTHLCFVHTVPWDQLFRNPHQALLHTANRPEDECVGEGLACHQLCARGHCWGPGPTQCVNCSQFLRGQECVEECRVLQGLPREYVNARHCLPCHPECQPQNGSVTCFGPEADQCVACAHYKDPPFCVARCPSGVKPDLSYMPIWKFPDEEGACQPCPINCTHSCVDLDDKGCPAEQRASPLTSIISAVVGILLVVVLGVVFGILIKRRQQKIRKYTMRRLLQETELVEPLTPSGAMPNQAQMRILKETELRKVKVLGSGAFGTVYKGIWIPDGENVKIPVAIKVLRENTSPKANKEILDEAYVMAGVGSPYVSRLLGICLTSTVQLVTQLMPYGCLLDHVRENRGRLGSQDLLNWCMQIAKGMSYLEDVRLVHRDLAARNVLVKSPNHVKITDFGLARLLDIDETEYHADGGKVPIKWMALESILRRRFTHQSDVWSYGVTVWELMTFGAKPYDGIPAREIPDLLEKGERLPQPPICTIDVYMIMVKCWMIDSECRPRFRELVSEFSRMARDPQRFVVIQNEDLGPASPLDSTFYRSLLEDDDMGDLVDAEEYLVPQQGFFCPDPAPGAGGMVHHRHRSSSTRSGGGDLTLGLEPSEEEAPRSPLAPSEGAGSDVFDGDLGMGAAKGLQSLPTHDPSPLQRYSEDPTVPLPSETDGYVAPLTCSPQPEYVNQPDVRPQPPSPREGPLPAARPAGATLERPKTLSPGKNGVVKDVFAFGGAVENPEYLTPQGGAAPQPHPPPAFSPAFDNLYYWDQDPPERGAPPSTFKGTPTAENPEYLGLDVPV
Test: HotSpot kinase assay over HER2 (Reaction Biology)
Conditions: read-out: % kinase inhibition HER2
assay_metric: inhibition at 10 µM (%)
Give the number; % is assumed, so skip it.

The examples below pair each entry with its known result.
                              record_smiles  experimental_system         assay_metric  experimental_result
0  COc1cc2ncnc(Nc3ccc(Oc4ccc(Cl)c(Cl)c4)c(Cl)c3)c2cc1OCCCCCn1ccnc1[N+](=O)[O-]       UniProt:P04626  inhibition at 10 µM                 78.6
1  COc1cc2ncnc(Nc3ccc(Oc4ccc(Cl)c(Cl)c4)c(Cl)c3)c2cc1OCCCCn1ccnc1[N+](=O)[O-]       UniProt:P04626  inhibition at 10 µM                 80.3
2  COc1cc2ncnc(Nc3ccc(Oc4cccc(C(F)(F)F)c4)c(Cl)c3)c2cc1OCCCn1ccnc1[N+](=O)[O-]       UniProt:P04626  inhibition at 10 µM                 81.7
3  COc1cc2ncnc(Nc3ccc(Oc4cccc(C(F)(F)F)c4)c(Cl)c3)c2cc1OCCCCCCn1ccnc1[N+](=O)[O-]       UniProt:P04626  inhibition at 10 µM                   97
4  COc1cc2ncnc(Nc3ccc(Oc4ccc(Cl)c(Cl)c4)c(Cl)c3)c2cc1OCCCCCCn1ccnc1[N+](=O)[O-]       UniProt:P04626  inhibition at 10 µM                 72.1

## Input Please indicate inhibition at 10 µM recorded for COc1cc2ncnc(Nc3ccc(Oc4cccc(C(F)(F)F)c4)c(Cl)c3)c2cc1OCCCCn1ccnc1[N+](=O)[O-]
## Output 98

## Input Please indicate inhibition at 10 µM recorded for COc1cc2ncnc(Nc3ccc(Oc4cccc(C(F)(F)F)c4)c(Cl)c3)c2cc1OCCCCCn1ccnc1[N+](=O)[O-]
## Output 96.2

## Input Please indicate inhibition at 10 µM recorded for COc1cc2ncnc(Nc3ccc(Oc4ccc(Cl)c(Cl)c4)c(Cl)c3)c2cc1OCCCn1ccnc1[N+](=O)[O-]
## Output 69.8

---

assay_metric: melting point

>>> print(df.to_string())
                              record_smiles   assay_metric  experimental_result
0  COc1cc2ncnc(Nc3ccc(Oc4cccc(C(F)(F)F)c4)c(Cl)c3)c2cc1OCCCCCCn1ccnc1[N+](=O)[O-]  melting point          84 to 85 °C
1  COc1cc2ncnc(Nc3ccc(Oc4cccc(C(F)(F)F)c4)c(Cl)c3)c2cc1OCCCCCn1ccnc1[N+](=O)[O-]  melting point          90 to 91 °C
2  COc1cc2ncnc(Nc3ccc(Oc4ccc(Cl)c(Cl)c4)c(Cl)c3)c2cc1OCCCn1ccnc1[N+](=O)[O-]  melting point        237 to 238 °C
3  COc1cc2ncnc(Nc3ccc(Oc4ccc(Cl)c(Cl)c4)c(Cl)c3)c2cc1OCCCCn1ccnc1[N+](=O)[O-]  melting point        101 to 102 °C
4  COc1cc2ncnc(Nc3ccc(Oc4ccc(Cl)c(Cl)c4)c(Cl)c3)c2cc1OCCCCCCn1ccnc1[N+](=O)[O-]  melting point          90 to 91 °C

## Input Please indicate melting point recorded for COc1cc2ncnc(Nc3ccc(Oc4ccc(Cl)c(Cl)c4)c(Cl)c3)c2cc1OCCCCCn1ccnc1[N+](=O)[O-]
## Output 94 to 95 °C

## Input Please indicate melting point recorded for COc1cc2ncnc(Nc3ccc(Oc4cccc(C(F)(F)F)c4)c(Cl)c3)c2cc1OCCCn1ccnc1[N+](=O)[O-]
## Output 232 to 233 °C
